Task for the reader: assign each of the following compounds its reported log10 of IC50.
Target: NUAK1 (Homo sapiens, UniProt O60285)
Sequence (O60285 whole entry): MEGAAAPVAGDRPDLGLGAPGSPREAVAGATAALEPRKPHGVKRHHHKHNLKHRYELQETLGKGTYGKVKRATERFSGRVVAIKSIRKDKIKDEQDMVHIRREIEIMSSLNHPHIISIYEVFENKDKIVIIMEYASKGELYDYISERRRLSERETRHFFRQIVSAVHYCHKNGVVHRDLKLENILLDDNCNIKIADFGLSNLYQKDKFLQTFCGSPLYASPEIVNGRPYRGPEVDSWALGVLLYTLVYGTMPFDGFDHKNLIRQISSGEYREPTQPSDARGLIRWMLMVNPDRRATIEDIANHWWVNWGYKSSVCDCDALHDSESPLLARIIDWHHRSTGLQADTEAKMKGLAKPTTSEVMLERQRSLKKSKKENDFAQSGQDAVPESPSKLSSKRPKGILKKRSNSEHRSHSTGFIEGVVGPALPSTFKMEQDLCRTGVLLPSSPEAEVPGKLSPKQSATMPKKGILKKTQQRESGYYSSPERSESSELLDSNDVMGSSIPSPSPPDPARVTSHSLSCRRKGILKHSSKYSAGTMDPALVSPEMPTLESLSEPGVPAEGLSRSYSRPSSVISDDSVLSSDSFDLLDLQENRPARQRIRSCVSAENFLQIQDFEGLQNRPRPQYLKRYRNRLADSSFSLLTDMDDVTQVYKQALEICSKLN
Assay: Kinase activity assay, P81 filter paper binding hot-spot technique (33P-ATP, CHKtide substrate)
Format: biochemical
Settings: final concentration of NUAK1 10 nM; 20 µM CHKtide substrate; 33P-labeled ATP; 2 hours at room temperature; read-out: IC50 (nM) of Test Compounds against NUAK1
Record value = log10 of IC50 given in nM.

// fetch log10 of IC50; item: CCCS(=O)(=O)Nc1cnn(-c2nc(Nc3cnc(C4CCNCC4)s3)ncc2Cl)c1 ; system: NUAK1 (Homo sapiens, UniProt O60285)
0.78

Recall the reported log10 of IC50 of CN1CCN(c2ccc(Nc3nccc(-n4ccc(C(=O)NCC#N)c4)n3)cc2)CC1 on NUAK1 (Homo sapiens, UniProt O60285) and write it down.
1.28

Lab note: NUAK1 (Homo sapiens, UniProt O60285) assay, enter log10 of IC50 for N#CCNC(=O)c1ccn(-c2ccnc(Nc3cnn(C4CCNCC4)c3)n2)c1 here
1.92

Enter log10 of IC50 (test system NUAK1 (Homo sapiens, UniProt O60285)) for COc1cc(N2CCN(C)CC2)ccc1Nc1ncc(Cl)c(-n2ccc(C(=O)NCC#N)c2)n1
1.63

Answer with log10 of IC50 of COc1cc(N2CCN(C)CC2)ccc1Nc1nccc(-n2ccc(C(=O)NCC#N)c2)n1 measured for NUAK1 (Homo sapiens, UniProt O60285).
2.41

Give reported log10 of IC50 for COc1cc(C2CCN(C)C2)ccc1Nc1nccc(-n2ccc(C(=O)NCC#N)c2)n1 (stereo not shown) (NUAK1 (Homo sapiens, UniProt O60285))
2.60

Param request: log10 of IC50 | system NUAK1 (Homo sapiens, UniProt O60285) | item COc1cc(N2CCN(C)CC2)ccc1Nc1nccc(-n2cc(C(=O)NCC#N)cn2)n1
2.68
